Biological target: Glycogen synthase kinase-3 beta (Homo sapiens)
Sequence (P49841 whole entry): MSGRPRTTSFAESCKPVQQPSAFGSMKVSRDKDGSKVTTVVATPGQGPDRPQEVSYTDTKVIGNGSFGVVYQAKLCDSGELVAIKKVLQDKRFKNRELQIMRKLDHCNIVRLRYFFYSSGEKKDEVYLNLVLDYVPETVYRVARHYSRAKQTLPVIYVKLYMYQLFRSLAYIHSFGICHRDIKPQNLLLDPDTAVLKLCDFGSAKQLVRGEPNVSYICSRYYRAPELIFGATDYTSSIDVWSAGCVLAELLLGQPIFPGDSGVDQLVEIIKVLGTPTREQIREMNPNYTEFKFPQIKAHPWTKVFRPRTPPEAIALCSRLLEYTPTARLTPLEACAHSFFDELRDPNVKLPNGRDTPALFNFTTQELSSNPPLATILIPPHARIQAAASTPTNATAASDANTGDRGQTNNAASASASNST
READOUT: IC50 (nM)

In [3]: df
Out[3]:
                              line_notation  experimental_value
0  FC(F)(F)c1cccc(Nc2nccc(-c3c(-c4ccccc4)nn4ncccc34)n2)c1                  10

I. Cc1ccc2c(-c3ccnc(Nc4ccc5c(c4)OCCO5)n3)c(-c3ccc(F)cc3)nn2n1
II. COc1cc(Nc2nccc(-c3cnn4nc(OC)ccc34)n2)cc(C(F)(F)F)c1
III. FC(F)(F)c1cc(Nc2nccc(-c3c(-c4ccccc4)nn4ncccc34)n2)ccc1Cl
*Q* Rank descending by IC50. Provide your answer as the labels ordered per the instruction.
*A* II, III, I

====

# collection of IC50 values tested on Cyclin-dependent kinase 2 (Homo sapiens)

Reference set (4 entries):
In [3]: df
Out[3]:
                                   compound  experimental_value
0  Cc1ccc2c(-c3ccnc(Nc4ccccc4)n3)c(-c3ccc(F)cc3)nn2n1 [GW833373X]             > 20 µM
1  Fc1ccc(Nc2nccc(-c3c(-c4ccc(C(F)(F)F)cc4)nn4ncccc34)n2)cc1F [GW828529X]             > 20 µM
2  COc1ccc(-c2nn3ncccc3c2-c2ccnc(Nc3ccccc3)n2)cc1             > 20 µM
3  Fc1ccc(Nc2nccc(-c3c(-c4ccc(Cl)cc4)nn4ncccc34)n2)cc1F             > 20 µM

*Q* Answer with IC50 of `COc1ccc2c(-c3ccnc(Nc4ccc5c(c4)OCCO5)n3)cnn2n1` measured for Cyclin-dependent kinase 2 (Homo sapiens).
*A* 0.1 µM

*Q* Answer with IC50 of Clc1ccc(-c2nn3ncccc3c2-c2ccnc(Nc3ccccc3)n2)cc1 [GW829055X] measured for Cyclin-dependent kinase 2 (Homo sapiens).
*A* > 20 µM

*Q* Answer with IC50 of `COCCOc1cnn2ncc(-c3ccnc(Nc4cccc(OC)c4)n3)c2c1` measured for Cyclin-dependent kinase 2 (Homo sapiens).
*A* > 20 µM

*Q* Answer with IC50 of `FC(F)(F)c1cccc(-c2nn3ncccc3c2-c2ccnc(Nc3ccccc3)n2)c1` measured for Cyclin-dependent kinase 2 (Homo sapiens).
*A* > 20 µM

*Q* Answer with IC50 of `Cc1ccc2c(-c3ccnc(Nc4ccc5c(c4)OCCO5)n3)cnn2n1` measured for Cyclin-dependent kinase 2 (Homo sapiens).
*A* 0.006 µM

*Q* Answer with IC50 of `FC(F)(F)c1cc(Nc2nccc(-c3c(-c4ccc(Cl)cc4)nn4ncccc34)n2)ccc1Cl` measured for Cyclin-dependent kinase 2 (Homo sapiens).
*A* > 20 µM

*Q* Answer with IC50 of `Cc1ccc2c(-c3ccnc(Nc4cccc(C(F)(F)F)c4)n3)cnn2n1` measured for Cyclin-dependent kinase 2 (Homo sapiens).
*A* 0.05 µM

====

Target: Glycogen synthase kinase-3 beta (Rattus norvegicus)
Sequence (P18266 whole entry): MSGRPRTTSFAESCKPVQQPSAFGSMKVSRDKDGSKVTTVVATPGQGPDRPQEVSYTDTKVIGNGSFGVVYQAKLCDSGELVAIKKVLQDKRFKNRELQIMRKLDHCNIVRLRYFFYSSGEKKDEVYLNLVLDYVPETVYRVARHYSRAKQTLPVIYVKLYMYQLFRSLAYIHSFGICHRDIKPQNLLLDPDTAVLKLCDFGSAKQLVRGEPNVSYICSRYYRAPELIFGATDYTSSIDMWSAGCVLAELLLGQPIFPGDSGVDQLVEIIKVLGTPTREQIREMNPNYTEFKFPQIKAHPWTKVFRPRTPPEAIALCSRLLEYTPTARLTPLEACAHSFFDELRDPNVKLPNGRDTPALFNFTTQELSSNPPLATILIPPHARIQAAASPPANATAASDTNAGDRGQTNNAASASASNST
Assay: Effective concentration to increase glycogen deposition in rat skeletal muscle L6 myoblast cells
READOUT: EC50 (µM)

                              line_notation  readout  unit  experimental_value
0  Cc1ccc2c(-c3ccnc(Nc4ccccc4)n3)c(-c3ccccc3)nn2n1     EC50    µM                 3.6
1   Fc1cc(F)cc(Nc2nccc(-c3cnn4ncccc34)n2)c1     EC50    µM                   1
2  Clc1cc(Cl)cc(Nc2nccc(-c3cnn4ncccc34)n2)c1     EC50    µM                   1
3  Fc1ccc(Nc2nccc(-c3c(-c4ccccc4)nn4ncccc34)n2)cc1F     EC50    µM                 4.2
4     COc1cccc(Nc2nccc(-c3cnn4ncccc34)n2)c1     EC50    µM                 1.3
5   COc1ccc(Nc2nccc(-c3cnn4ncccc34)n2)cc1OC     EC50    µM                 1.5

P. Cc1cc(C)cc(Nc2nccc(-c3cnn4ncccc34)n2)c1
Q. Fc1ccc(-c2nn3ncccc3c2-c2ccnc(Nc3cccc(C(F)(F)F)c3)n2)cc1
*Q* Which of the two items, P and Q , has the greater recorded EC50? Write down the label of the entry you select.
*A* Q
